Entries and their inhibition at 100 µM values follow.
TGT: UniProtKB P15390
EXPERIMENT NOTES: Two-electrode voltage-clamp on Xenopus laevis oocytes expressing NaV1.4
TEST CONDITIONS: read-out: Maximum % inhibition NaV1.4, peptide at 100 μM
Where a SMILES comes first, the peptide text is derived from it. Bridges are numbered along the chain shown (N, C = ends).

COMPOUND | DISPLAY UNIT | VALUE OPERATOR | inhibition at 100 µM
C[C@@H]1NC(=O)[C@H](Cc2c[nH]c3ccccc23)NC(=O)[C@H](CCCNC(=N)N)NC(=O)[C@H](CCCNC(=N)N)NC(=O)[C@@H](N)CSSC[C@@H](C(N)=O)NC(=O)[C@H](CCCNC(=N)N)NC(=O)[C@H](CC(N)=O)NC(=O)[C@H](Cc2c[nH]c3ccccc23)NC(=O)[C@H](CCC(=O)O)NC1=O [PnCS1[R6E], CRRWAEWNRC ^*] (H-CRRWAEWNRC-NH2; disulfide 1-10) | % | = | 0
C[C@@H]1NC(=O)[C@H](C)NC(=O)[C@H](CCCNC(=N)N)NC(=O)[C@H](CCCNC(=N)N)NC(=O)[C@@H](N)CSSC[C@@H](C(N)=O)NC(=O)[C@H](CCCNC(=N)N)NC(=O)[C@H](CC(N)=O)NC(=O)[C@H](Cc2c[nH]c3ccccc23)NC(=O)[C@H](CCCNC(=N)N)NC1=O [PnCS1[W4A], CRRAARWNRC ^*] (H-CRRAARWNRC-NH2; disulfide 1-10) | % | = | 95
C[C@@H]1NC(=O)[C@H](C)NC(=O)[C@H](Cc2c[nH]c3ccccc23)NC(=O)[C@H](CCCNC(=N)N)NC(=O)[C@H](CCCNC(=N)N)NC(=O)[C@@H](N)CSSC[C@@H](C(N)=O)NC(=O)[C@H](CCCNC(=N)N)NC(=O)[C@H](CC(N)=O)NC(=O)[C@H](Cc2c[nH]c3ccccc23)NC1=O [PnCS1[R6A], CRRWAAWNRC ^*] (H-CRRWAAWNRC-NH2; disulfide 1-10) | % | > | 95
C[C@@H]1NC(=O)[C@H](Cc2c[nH]c3ccccc23)NC(=O)[C@H](CCCNC(=N)N)NC(=O)[C@H](C)NC(=O)[C@H](Cc2c[nH]c3ccccc23)NC(=O)[C@H](CCCNC(=N)N)NC(=O)[C@H](CCCNC(=N)N)NC(=O)[C@@H](N)CSSC[C@@H](C(N)=O)NC(=O)[C@H](CCCNC(=N)N)NC1=O [PnCS1[N8A], CRRWARWARC ^*] (H-CRRWARWARC-NH2; disulfide 1-10) | % | = | 94
N=C(N)NCCC[C@@H]1NC(=O)[C@H](CC(N)=O)NC(=O)[C@H](Cc2c[nH]c3ccccc23)NC(=O)[C@H](CCCNC(=N)N)NC(=O)[C@H](CCC(=O)O)NC(=O)[C@H](Cc2c[nH]c3ccccc23)NC(=O)[C@H](CCCNC(=N)N)NC(=O)[C@H](CCCNC(=N)N)NC(=O)[C@@H](N)CSSC[C@@H](C(N)=O)NC1=O [PnCS1[A5E], CRRWERWNRC ^*] (H-CRRWERWNRC-NH2; disulfide 1-10) | % | = | 35

* * *

Entries and their Maximum % inhibition NaV1.4 values follow.
TGT: rNaV1.4 (Rattus norvegicus, UniProt P15390)
Sequence (P15390 whole entry): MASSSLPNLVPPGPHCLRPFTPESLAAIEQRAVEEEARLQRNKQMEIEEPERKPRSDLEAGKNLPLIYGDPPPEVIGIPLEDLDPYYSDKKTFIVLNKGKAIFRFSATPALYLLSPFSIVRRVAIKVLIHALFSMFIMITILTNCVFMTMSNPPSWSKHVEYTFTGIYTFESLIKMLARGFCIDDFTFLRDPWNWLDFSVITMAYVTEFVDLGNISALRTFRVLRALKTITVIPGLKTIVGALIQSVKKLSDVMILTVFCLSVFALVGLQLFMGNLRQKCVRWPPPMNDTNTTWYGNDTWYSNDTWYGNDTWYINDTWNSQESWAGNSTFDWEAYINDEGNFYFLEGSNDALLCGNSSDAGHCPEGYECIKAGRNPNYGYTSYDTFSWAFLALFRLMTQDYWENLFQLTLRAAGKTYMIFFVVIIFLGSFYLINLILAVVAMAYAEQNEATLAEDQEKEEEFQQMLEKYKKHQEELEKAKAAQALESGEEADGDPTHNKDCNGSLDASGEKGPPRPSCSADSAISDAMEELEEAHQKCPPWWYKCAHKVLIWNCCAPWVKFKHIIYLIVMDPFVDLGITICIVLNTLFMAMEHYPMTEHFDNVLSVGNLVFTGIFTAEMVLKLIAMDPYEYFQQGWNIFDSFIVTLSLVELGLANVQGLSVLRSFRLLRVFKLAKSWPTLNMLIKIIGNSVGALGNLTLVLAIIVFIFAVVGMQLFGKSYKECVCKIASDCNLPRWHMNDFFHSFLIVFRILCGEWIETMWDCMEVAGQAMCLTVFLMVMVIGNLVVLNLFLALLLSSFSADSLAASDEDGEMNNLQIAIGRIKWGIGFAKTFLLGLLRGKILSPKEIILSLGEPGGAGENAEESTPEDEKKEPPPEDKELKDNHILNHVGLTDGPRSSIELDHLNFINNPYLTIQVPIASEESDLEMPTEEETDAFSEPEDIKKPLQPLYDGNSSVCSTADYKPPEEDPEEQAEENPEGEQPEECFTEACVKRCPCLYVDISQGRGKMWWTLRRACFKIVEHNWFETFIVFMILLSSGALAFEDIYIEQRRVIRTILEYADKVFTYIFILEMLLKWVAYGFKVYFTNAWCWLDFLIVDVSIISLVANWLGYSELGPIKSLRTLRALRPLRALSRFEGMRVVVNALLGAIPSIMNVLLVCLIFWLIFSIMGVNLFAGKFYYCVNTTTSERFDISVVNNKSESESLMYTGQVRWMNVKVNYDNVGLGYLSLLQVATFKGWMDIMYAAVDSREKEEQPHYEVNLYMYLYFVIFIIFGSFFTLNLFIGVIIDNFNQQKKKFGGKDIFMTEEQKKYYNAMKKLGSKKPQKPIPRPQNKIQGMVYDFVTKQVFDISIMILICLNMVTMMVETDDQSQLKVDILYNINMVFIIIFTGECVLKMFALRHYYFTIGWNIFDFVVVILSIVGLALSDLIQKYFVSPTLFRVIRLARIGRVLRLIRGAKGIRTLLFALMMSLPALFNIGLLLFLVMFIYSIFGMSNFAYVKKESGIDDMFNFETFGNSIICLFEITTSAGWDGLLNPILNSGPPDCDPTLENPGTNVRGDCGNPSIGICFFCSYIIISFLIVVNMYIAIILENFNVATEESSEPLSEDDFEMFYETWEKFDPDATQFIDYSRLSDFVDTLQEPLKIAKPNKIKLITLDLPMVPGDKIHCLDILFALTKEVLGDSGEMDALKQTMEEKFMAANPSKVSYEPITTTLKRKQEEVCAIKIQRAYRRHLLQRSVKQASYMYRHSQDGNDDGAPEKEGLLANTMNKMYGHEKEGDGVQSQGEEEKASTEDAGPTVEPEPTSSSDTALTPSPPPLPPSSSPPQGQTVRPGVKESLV
Sequence (Q00954 19-218, further chain): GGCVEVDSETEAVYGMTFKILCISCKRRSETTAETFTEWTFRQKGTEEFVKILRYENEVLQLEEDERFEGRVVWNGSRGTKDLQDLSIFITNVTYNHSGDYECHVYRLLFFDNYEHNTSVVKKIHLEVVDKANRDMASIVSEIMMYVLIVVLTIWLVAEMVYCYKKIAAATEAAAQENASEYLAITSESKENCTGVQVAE
EXPERIMENT NOTES: Two-electrode voltage-clamp on Xenopus laevis oocytes expressing NaV1.4
TEST CONDITIONS: peptide at 100 μM; 100 µM
Where a SMILES comes first, the peptide text is derived from it. Bridges are numbered along the chain shown (N, C = ends).
ENDPOINT: Maximum % inhibition NaV1.4 (%)

COMPOUND | TGT | READOUT NUMBER
C[C@@H]1NC(=O)[C@H](Cc2c[nH]c3ccccc23)NC(=O)[C@H](CCCNC(=N)N)NC(=O)[C@H](CCCNC(=N)N)NC(=O)[C@@H](N)CSSC[C@@H](C(N)=O)NC(=O)[C@H](CCCNC(=N)N)NC(=O)[C@H](CCCCN)NC(=O)[C@H](Cc2c[nH]c3ccccc23)NC(=O)[C@H](CCCNC(=N)N)NC1=O [PnCS1[N8K], CRRWARWKRC ^*] (H-CRRWARWKRC-NH2; disulfide 1-10) | rNaV1.4 (Rattus norvegicus, UniProt P15390) | 96
C[C@@H]1NC(=O)[C@H](CCCNC(=N)N)NC(=O)[C@H](C)NC(=O)[C@H](Cc2c[nH]c3ccccc23)NC(=O)[C@H](CCCNC(=N)N)NC(=O)[C@H](CCCNC(=N)N)NC(=O)[C@@H](N)CSSC[C@@H](C(N)=O)NC(=O)[C@H](CCCNC(=N)N)NC(=O)[C@H](CC(N)=O)NC1=O [PnCS1[W7A], CRRWARANRC ^*] (H-CRRWARANRC-NH2; disulfide 1-10) | rNaV1.4 (Rattus norvegicus, UniProt P15390) | 96
C[C@@H]1NC(=O)[C@H](Cc2c[nH]c3ccccc23)NC(=O)[C@H](CCCNC(=N)N)NC(=O)[C@H](C)NC(=O)[C@@H](N)CSSC[C@@H](C(N)=O)NC(=O)[C@H](CCCNC(=N)N)NC(=O)[C@H](CC(N)=O)NC(=O)[C@H](Cc2c[nH]c3ccccc23)NC(=O)[C@H](CCCNC(=N)N)NC1=O [PnCS1[R2A], CARWARWNRC ^*] (H-CARWARWNRC-NH2; disulfide 1-10) | rNaV1.4 (Rattus norvegicus, UniProt P15390) | 96
C[C@@H]1NC(=O)[C@H](C)NC(=O)[C@H](Cc2c[nH]c3ccccc23)NC(=O)[C@H](CCCNC(=N)N)NC(=O)[C@H](CCCNC(=N)N)NC(=O)[C@@H](N)CSSC[C@@H](C(N)=O)NC(=O)[C@H](CCCNC(=N)N)NC(=O)[C@H](CC(N)=O)NC(=O)[C@H](Cc2c[nH]c3ccccc23)NC1=O [PnCS1[R6A], CRRWAAWNRC ^*] (H-CRRWAAWNRC-NH2; disulfide 1-10) | rNaV1.4 (Rattus norvegicus, UniProt P15390) | 90

# credit: paper PMC9116130
